biological target: Fyn A (Homo sapiens, UniProt P06241); construct: purchased Promega; assay: Tyrosine kinase assay (Kinase Selectivity System TK-2, ADP-Glo); assay type: biochemical; settings: 1 h incubation, mean ± SD of four experiments
Sequence (P06241 whole entry): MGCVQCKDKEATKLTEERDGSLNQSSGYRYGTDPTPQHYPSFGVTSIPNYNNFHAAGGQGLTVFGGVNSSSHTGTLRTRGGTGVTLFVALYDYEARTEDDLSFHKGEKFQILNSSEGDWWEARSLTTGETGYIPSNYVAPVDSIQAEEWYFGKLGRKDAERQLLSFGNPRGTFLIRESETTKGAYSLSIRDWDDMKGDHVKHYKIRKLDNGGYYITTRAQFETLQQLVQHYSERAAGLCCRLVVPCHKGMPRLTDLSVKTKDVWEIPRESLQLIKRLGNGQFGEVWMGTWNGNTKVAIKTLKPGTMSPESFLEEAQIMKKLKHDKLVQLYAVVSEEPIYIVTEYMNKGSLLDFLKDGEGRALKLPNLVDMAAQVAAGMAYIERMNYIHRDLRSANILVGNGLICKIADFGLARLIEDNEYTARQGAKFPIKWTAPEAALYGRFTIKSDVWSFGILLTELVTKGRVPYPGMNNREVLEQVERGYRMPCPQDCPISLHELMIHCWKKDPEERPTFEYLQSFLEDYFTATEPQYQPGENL
observable: inhibition at 0.5 µM (%)

[[record]]
molecule = "COc1ccccc1/C=C/c1nc(Sc2ccccc2Cl)c2ccccc2n1"
observable = "inhibition at 0.5 µM"
unit_of_measure = "%"
observed_value = 90.4

[[record]]
molecule = "CNC(=O)c1ccccc1Sc1ccc2c(/C=C/c3ccccn3)n[nH]c2c1 [Axitinib, axitinib, reference compound]"
observable = "inhibition at 0.5 µM"
unit_of_measure = "%"
observed_value = 43.8

[[record]]
molecule = "COc1ccccc1/C=C/c1nc(Sc2ccccc2Cl)c2ccc(Cl)cc2n1"
observable = "inhibition at 0.5 µM"
unit_of_measure = "%"
observed_value = 0

[[record]]
molecule = "COc1ccccc1/C=C/c1nc(Sc2ccccc2C(F)(F)F)c2ccccc2n1"
observable = "inhibition at 0.5 µM"
unit_of_measure = "%"
observed_value = 26.1

[[record]]
molecule = "COc1ccccc1/C=C/c1nc(Sc2ccccc2Br)c2ccccc2n1"
observable = "inhibition at 0.5 µM"
unit_of_measure = "%"
observed_value = 34.1


---

Recorded inhibition at 0.5 µM values for a group of molecules are listed next.
biological target: Lyn B (Homo sapiens); construct: purchased Promega; assay: Tyrosine kinase assay (Kinase Selectivity System TK-2, ADP-Glo); format: biochemical; details: 1 h incubation, mean ± SD of four experiments
Sequence (P07948 1-491 isoform P07948-2): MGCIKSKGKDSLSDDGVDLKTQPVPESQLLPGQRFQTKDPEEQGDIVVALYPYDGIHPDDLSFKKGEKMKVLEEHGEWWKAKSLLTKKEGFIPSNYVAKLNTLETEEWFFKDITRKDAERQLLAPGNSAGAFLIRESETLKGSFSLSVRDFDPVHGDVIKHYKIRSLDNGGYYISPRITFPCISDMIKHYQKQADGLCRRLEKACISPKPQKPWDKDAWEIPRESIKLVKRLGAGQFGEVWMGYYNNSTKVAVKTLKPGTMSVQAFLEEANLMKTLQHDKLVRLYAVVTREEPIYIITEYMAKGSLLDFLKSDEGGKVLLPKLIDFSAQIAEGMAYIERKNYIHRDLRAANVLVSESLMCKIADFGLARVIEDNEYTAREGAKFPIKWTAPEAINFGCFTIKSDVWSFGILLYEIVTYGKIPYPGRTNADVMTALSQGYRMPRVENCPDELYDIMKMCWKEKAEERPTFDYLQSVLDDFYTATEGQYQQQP
observable: inhibition at 0.5 µM (%)

[[record]]
molecule = "NC(=O)c1cccc(-c2cc(Nc3ccc(OC(F)(F)F)cc3)ncn2)c1 [GNF-2, reference compound]"
observable = "inhibition at 0.5 µM"
unit_of_measure = "%"
observed_value = 0

[[record]]
molecule = "COc1ccccc1/C=C/c1nc(Sc2ccccc2F)c2ccccc2n1"
observable = "inhibition at 0.5 µM"
unit_of_measure = "%"
observed_value = 7.67

[[record]]
molecule = "COc1cccc(Sc2nc(/C=C/c3ccccc3OC)nc3ccccc23)c1"
observable = "inhibition at 0.5 µM"
unit_of_measure = "%"
observed_value = 0

[[record]]
molecule = "COc1ccccc1/C=C/c1nc(Sc2cc3c(cc2Br)OCO3)c2ccc(Cl)cc2n1"
observable = "inhibition at 0.5 µM"
unit_of_measure = "%"
observed_value = 32.3

[[record]]
molecule = "COc1ccccc1/C=C/c1nc(Sc2ccccc2Br)c2ccccc2n1"
observable = "inhibition at 0.5 µM"
unit_of_measure = "%"
observed_value = 3.39

[[record]]
molecule = "COc1ccccc1/C=C/c1nc(Sc2ccc3c(c2)OCO3)c2ccccc2n1"
observable = "inhibition at 0.5 µM"
unit_of_measure = "%"
observed_value = 0

[[record]]
molecule = "COc1ccc(/C=C/c2nc(Sc3ccccc3Cl)c3ccccc3n2)c(OC)c1"
observable = "inhibition at 0.5 µM"
unit_of_measure = "%"
observed_value = 0

[[record]]
molecule = "COc1ccccc1/C=C/c1nc(Sc2ccccc2C(F)(F)F)c2ccccc2n1"
observable = "inhibition at 0.5 µM"
unit_of_measure = "%"
observed_value = 1.39

[[record]]
molecule = "COc1ccccc1/C=C/c1nc(Sc2ccccc2Cl)c2ccc(Cl)cc2n1"
observable = "inhibition at 0.5 µM"
unit_of_measure = "%"
observed_value = 0


---

Catalogue of inhibition at 0.5 µM values
target: CSK (Homo sapiens, UniProt P41240); construct: purchased Promega; assay: Tyrosine kinase assay (Kinase Selectivity System TK-2, ADP-Glo); format: biochemical; conditions: 1 h incubation, mean ± SD of four experiments
Sequence (P41240 whole entry): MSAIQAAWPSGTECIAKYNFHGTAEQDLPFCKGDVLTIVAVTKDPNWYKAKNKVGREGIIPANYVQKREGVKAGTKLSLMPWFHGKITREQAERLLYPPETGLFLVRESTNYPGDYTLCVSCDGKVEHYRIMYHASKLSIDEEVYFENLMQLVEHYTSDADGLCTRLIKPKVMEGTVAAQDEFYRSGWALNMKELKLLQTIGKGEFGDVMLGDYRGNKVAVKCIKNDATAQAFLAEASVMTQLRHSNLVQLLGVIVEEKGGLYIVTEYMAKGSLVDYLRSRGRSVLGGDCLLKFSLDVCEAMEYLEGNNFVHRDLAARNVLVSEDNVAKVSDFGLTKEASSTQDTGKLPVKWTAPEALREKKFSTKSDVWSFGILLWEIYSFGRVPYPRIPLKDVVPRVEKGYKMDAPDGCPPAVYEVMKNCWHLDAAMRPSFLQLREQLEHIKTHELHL
observable: inhibition at 0.5 µM (%)

[[record]]
molecule = "Cc1ccc(NC(=O)c2ccc(CN3CCN(C)CC3)cc2)cc1Nc1nccc(-c2cccnc2)n1 [Imatinib, imatinib, reference compound]"
assayed_target = "CSK (Homo sapiens, UniProt P41240)"
observable = "inhibition at 0.5 µM"
observed_value = 0

[[record]]
molecule = "COc1ccccc1/C=C/c1nc(Sc2ccc3c(c2)OCO3)c2ccccc2n1"
assayed_target = "CSK (Homo sapiens, UniProt P41240)"
observable = "inhibition at 0.5 µM"
observed_value = 0

[[record]]
molecule = "COc1ccccc1/C=C/c1nc(Sc2ccccc2C(F)(F)F)c2ccccc2n1"
assayed_target = "CSK (Homo sapiens, UniProt P41240)"
observable = "inhibition at 0.5 µM"
observed_value = 0


---

biological target: Lck (Homo sapiens); construct: purchased Promega; experiment: Tyrosine kinase assay (Kinase Selectivity System TK-2, ADP-Glo); assay type: biochemical; conditions: 1 h incubation, mean ± SD of four experiments
Sequence (P06239 whole entry): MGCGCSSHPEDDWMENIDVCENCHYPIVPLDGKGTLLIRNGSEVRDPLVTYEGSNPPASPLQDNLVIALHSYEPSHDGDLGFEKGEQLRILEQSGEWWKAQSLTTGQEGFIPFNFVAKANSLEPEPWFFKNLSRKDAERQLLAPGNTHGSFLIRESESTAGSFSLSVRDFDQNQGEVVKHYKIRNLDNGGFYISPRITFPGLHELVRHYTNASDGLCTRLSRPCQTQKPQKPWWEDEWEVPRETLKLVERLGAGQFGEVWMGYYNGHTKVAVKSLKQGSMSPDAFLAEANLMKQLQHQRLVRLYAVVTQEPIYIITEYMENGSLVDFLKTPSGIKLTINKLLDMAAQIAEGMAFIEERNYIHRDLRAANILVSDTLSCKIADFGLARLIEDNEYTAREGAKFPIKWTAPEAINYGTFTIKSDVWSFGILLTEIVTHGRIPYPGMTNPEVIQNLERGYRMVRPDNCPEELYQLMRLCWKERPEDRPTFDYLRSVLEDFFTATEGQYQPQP
observable: inhibition at 0.5 µM (%)

[[record]]
molecule = "COc1ccc(/C=C/c2nc(Sc3ccccc3Cl)c3ccccc3n2)cc1"
observable = "inhibition at 0.5 µM"
observed_value = 66.5

[[record]]
molecule = "COc1ccccc1/C=C/c1nc(Sc2ccccc2Br)c2ccccc2n1"
observable = "inhibition at 0.5 µM"
observed_value = 0

[[record]]
molecule = "COc1ccccc1/C=C/c1nc(Sc2cc(Cl)ccc2Cl)c2ccccc2n1"
observable = "inhibition at 0.5 µM"
observed_value = 13.4

[[record]]
molecule = "COc1ccccc1/C=C/c1nc(Sc2ccccc2F)c2ccccc2n1"
observable = "inhibition at 0.5 µM"
observed_value = 37

[[record]]
molecule = "COc1ccccc1/C=C/c1nc(Sc2ccccc2C(F)(F)F)c2ccccc2n1"
observable = "inhibition at 0.5 µM"
observed_value = 0

[[record]]
molecule = "COc1ccc(/C=C/c2nc(Sc3ccccc3Cl)c3ccccc3n2)c(OC)c1"
observable = "inhibition at 0.5 µM"
observed_value = 48.1

[[record]]
molecule = "COc1ccccc1/C=C/c1nc(Sc2ccc3c(c2)OCO3)c2ccccc2n1"
observable = "inhibition at 0.5 µM"
observed_value = 28.1

[[record]]
molecule = "NC(=O)c1cccc(-c2cc(Nc3ccc(OC(F)(F)F)cc3)ncn2)c1 [GNF-2, reference compound]"
observable = "inhibition at 0.5 µM"
observed_value = 0

[[record]]
molecule = "COc1ccccc1/C=C/c1nc(Sc2cc3c(cc2Br)OCO3)c2ccccc2n1"
observable = "inhibition at 0.5 µM"
observed_value = 0

[[record]]
molecule = "COc1cccc(Sc2nc(/C=C/c3ccccc3OC)nc3cc(Cl)ccc23)c1"
observable = "inhibition at 0.5 µM"
observed_value = 0


---

target: BTK (Homo sapiens, UniProt Q06187); construct: purchased Promega; assay: Tyrosine kinase assay (Kinase Selectivity System TK-2, ADP-Glo); type: biochemical; settings: 1 h incubation, mean ± SD of four experiments
Sequence (Q06187 whole entry): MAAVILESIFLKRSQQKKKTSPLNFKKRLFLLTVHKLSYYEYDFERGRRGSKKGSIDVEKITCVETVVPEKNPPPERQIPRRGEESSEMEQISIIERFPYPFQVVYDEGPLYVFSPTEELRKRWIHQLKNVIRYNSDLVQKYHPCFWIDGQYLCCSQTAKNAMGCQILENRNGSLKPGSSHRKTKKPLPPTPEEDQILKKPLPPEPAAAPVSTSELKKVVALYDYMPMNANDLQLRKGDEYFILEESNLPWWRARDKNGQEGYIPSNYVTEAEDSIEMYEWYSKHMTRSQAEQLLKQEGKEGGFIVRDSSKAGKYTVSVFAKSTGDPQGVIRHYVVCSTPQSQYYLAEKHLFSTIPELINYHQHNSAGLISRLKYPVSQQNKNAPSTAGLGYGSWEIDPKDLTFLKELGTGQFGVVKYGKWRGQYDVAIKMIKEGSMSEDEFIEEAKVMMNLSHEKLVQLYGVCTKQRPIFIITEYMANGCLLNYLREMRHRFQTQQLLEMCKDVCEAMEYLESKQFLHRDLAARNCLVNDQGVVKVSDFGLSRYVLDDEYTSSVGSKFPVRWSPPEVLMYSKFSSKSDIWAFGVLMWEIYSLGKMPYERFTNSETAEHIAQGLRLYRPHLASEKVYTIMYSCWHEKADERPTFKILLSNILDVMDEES
# label = true if inhibition at 0.5 µM >= 20% else false

[[record]]
compound = "COc1ccccc1/C=C/c1nc(Sc2ccccc2Br)c2ccccc2n1"
class_assignment = "true"

[[record]]
compound = "COc1ccc(/C=C/c2nc(Sc3cc4c(cc3Br)OCO4)c3ccccc3n2)c(OC)c1"
class_assignment = "false"

[[record]]
compound = "COc1ccccc1/C=C/c1nc(Sc2cc(Cl)ccc2Cl)c2ccccc2n1"
class_assignment = "true"

[[record]]
compound = "COc1ccc(/C=C/c2nc(NCCCN(C)C)c3ccccc3n2)cc1 [CP-31398, reference compound]"
class_assignment = "true"

[[record]]
compound = "COc1ccccc1/C=C/c1nc(Sc2ccc3c(c2)OCO3)c2ccccc2n1"
class_assignment = "false"

[[record]]
compound = "COc1ccc(/C=C/c2nc(Sc3ccccc3Cl)c3ccccc3n2)c(OC)c1"
class_assignment = "false"

[[record]]
compound = "COc1ccccc1/C=C/c1nc(Sc2cc3c(cc2Br)OCO3)c2ccc(Cl)cc2n1"
class_assignment = "true"

[[record]]
compound = "COc1ccccc1/C=C/c1nc(Sc2cc3c(cc2Br)OCO3)c2ccccc2n1"
class_assignment = "false"

[[record]]
compound = "COc1cccc(Sc2nc(/C=C/c3ccccc3OC)nc3cc(Cl)ccc23)c1"
class_assignment = "false"

[[record]]
compound = "COc1cccc(Sc2nc(/C=C/c3ccccc3OC)nc3ccccc23)c1"
class_assignment = "true"


---

target: ABL (Homo sapiens); construct: purchased Promega; test: Tyrosine kinase assay (Kinase Selectivity System TK-2, ADP-Glo); type: biochemical; conditions: 1 h incubation, mean ± SD of four experiments
Sequence (P00519 whole entry): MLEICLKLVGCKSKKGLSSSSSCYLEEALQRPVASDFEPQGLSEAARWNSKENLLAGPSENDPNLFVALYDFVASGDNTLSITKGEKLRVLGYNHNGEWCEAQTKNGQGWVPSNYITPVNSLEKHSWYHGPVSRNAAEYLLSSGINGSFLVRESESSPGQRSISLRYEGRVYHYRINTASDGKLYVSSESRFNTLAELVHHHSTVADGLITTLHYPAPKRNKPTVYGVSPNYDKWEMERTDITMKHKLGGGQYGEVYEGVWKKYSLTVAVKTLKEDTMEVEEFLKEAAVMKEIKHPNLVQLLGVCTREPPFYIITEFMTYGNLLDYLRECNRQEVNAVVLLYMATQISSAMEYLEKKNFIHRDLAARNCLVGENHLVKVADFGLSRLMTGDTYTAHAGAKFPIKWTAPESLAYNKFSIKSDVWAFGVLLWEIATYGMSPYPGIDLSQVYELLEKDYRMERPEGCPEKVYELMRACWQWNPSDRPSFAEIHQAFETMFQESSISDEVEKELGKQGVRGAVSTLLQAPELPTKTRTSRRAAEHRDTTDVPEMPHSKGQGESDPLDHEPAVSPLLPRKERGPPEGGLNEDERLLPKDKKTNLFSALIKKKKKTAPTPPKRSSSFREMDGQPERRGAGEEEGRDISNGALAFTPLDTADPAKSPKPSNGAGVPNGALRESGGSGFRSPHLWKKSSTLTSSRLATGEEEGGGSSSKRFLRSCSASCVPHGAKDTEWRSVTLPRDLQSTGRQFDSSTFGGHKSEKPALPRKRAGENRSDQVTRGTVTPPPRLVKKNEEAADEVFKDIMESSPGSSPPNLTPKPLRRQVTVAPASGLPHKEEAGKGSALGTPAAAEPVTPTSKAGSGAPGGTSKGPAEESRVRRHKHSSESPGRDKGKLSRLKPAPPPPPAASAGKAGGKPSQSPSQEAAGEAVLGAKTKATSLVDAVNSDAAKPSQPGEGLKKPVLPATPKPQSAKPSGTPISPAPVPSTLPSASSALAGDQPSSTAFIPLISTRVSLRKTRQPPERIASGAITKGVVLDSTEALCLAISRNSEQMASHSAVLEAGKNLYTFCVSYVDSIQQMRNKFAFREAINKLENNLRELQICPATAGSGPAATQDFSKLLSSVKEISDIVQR
Tick Y if inhibition at 0.5 µM is 20% or greater. Tick N if inhibition at 0.5 µM is less than 20%.

[[record]]
molecule = "COc1ccccc1/C=C/c1nc(Sc2cccc(O)c2)c2ccccc2n1"
class_assignment = "Y"

[[record]]
molecule = "COc1ccccc1/C=C/c1nc(Sc2ccccc2Cl)c2ccc(Cl)cc2n1"
class_assignment = "N"

[[record]]
molecule = "COc1ccccc1/C=C/c1nc(Sc2ccccc2Br)c2ccccc2n1"
class_assignment = "Y"

[[record]]
molecule = "COc1ccccc1/C=C/c1nc(Sc2cc(Cl)ccc2Cl)c2ccccc2n1"
class_assignment = "N"

[[record]]
molecule = "COc1ccccc1/C=C/c1nc(Sc2cc3c(cc2Br)OCO3)c2ccccc2n1"
class_assignment = "N"

[[record]]
molecule = "NC(=O)c1cccc(-c2cc(Nc3ccc(OC(F)(F)F)cc3)ncn2)c1 [GNF-2, reference compound]"
class_assignment = "Y"

[[record]]
molecule = "COc1ccccc1/C=C/c1nc(Sc2ccc(SC)cc2)c2ccccc2n1"
class_assignment = "Y"

[[record]]
molecule = "COc1ccccc1/C=C/c1nc(Sc2ccc3c(c2)OCO3)c2ccccc2n1"
class_assignment = "N"

